Origin of the recorded values: PubChem BioAssay (NCI)

Tested on: UO-31 renal
EXPERIMENT_DESCRIPTION: NCI tumour cell line growth inhibition, 48 h
QUANTITY_KIND: TGI

Past entries and their recorded results:
[[record]]
compound = "C/C(=N\\NC(=S)Nc1ccc(Cl)cc1)c1nc2ncccc2[nH]1"
test_value = "5.13 µM"

[[record]]
compound = "c1cc(C[S+]2CCCC2)oc1C[S+]1CCCC1"
test_value = "> 100 µM"

[[record]]
compound = "COc1cc(Cc2ccc3c(c2C#N)N(C)c2ccccc2S3)cc(OC)c1OC"
test_value = "> 100 µM"

[[record]]
compound = "Cc1ccc(Nc2nc(C)c(C(/C=C/c3ccc4c(c3)OCO4)=N/Nc3ccc([N+](=O)[O-])cc3[N+](=O)[O-])s2)c([N+](=O)[O-])c1"
test_value = "> 100 µM"


Dear colleague, could you please provide TGI for the compounds listed below?
1. Nc1ccc(C2=Nc3ccccc3SC(c3ccccc3O)C2)cc1 (configuration not stated)
2. COC(=O)CCC1(O)C=CC(=O)C=C1
3. O=C(Nc1ccc(S(=O)(=O)Nc2ncccn2)cc1)c1c2ccccc2nc2ccccc12
4. O=[N+]([O-])c1ccc2[nH]c(O)c(N=NC(=S)Nc3ccccc3)c2c1
5. Cc1nc(N(CCO)CCO)c2sc(=S)n(-c3ccccc3)c2n1
6. O=c1[nH]nc(-c2ccccc2)c2c(-c3ccccc3)onc12

Return:
1: > 100 µM; 2: > 100 µM; 3: > 100 µM; 4: 22 µM; 5: > 100 µM; 6: > 100 µM

Dear colleague, could you please provide TGI for the compounds listed below?
1. C=C(CC)C[C@@H]1C[C@]2(C(=O)OC)c3[nH]c4ccccc4c3CCN2C1=O
2. COc1cc2c(Cc3cc(OCc4ccccc4)ccc3N)nccc2c(OC)c1OC
3. CC1=C(C(=O)NC(C)(C)C)CC(C(=O)NC(C)(C)C)C(C)N1 (configuration not stated)
4. CNc1ncnc2c1cnn2Cc1cn(CCCCO)nn1
5. CC#Cc1c(C#CC)c(OC)c2c(c1OC)C(=O)c1ccccc1C2=O
6. CCCOP(=S)(N1CC1)N1CC1
7. Cc1ccc([N+](=O)[O-])c2c(NCCC[N+](C)(C)[O-])ccnc12
8. COC(=O)[C@@H]1[C@H](O)CC[C@H]2[C@@]1(C)CC[C@@H](C)[C@]2(COC(C)=O)CC(=O)c1ccoc1

Return:
38.6 µM
> 10 µM
> 100 µM
> 100 µM
> 100 µM
> 100 µM
> 100 µM
> 50 µM

Dear colleague, could you please provide TGI for the compounds listed below?
1. O=S(=O)(N/N=C/c1ccc(Cl)cc1Cl)c1ccccc1
2. CN(C)N=Nc1nn(C(=O)Nc2ccc(Cc3ccccc3)cc2)c2ccccc12
3. COc1nc(OC)nc(Sc2ccc(Sc3ccc(Sc4nc(OC)nc(OC)n4)cc3)cc2)n1
4. COc1ccc(/C=C(\Cl)c2ccc(OC)cc2)cc1
5. CCC(=O)c1c(C(F)(F)F)n([O-])c2ccccc2[n+]1=O
6. CCc1nc(N)nc(N)c1C#CC(C)c1cc(-c2ccnc(C)c2)c2oc(C)nc2c1 (configuration not stated)
7. Nc1ccccc1C#C/C=C\C#Cc1ccccc1F
8. Nc1nc(NCCOCP(=O)(O)O)c(N)c(=O)[nH]1

Return:
["> 100 µM", "> 79 µM", "> 100 µM", "> 100 µM", "> 20.2 µM", "11.5 µM", "35 µM", "> 100 µM"]

Dear colleague, could you please provide TGI for the compounds listed below?
1. COc1cc2c(cc1OCCCCCn1c3ccccc3c3ccccc31)N=C[C@@H]1CCCN1C2=O
2. COc1ccccc1Cn1[nH]c(=O)c2cc([N+](=O)[O-])ccc21
3. O=C(O)CCc1nc2cc3ccccc3cc2[nH]c1=O
4. C[N+]12CCCCC1C(CN1C(=O)c3ccccc3C1=O)CCC2 (configuration not stated)

Return:
["2.93 µM", "> 100 µM", "> 100 µM", "> 100 µM"]

Dear colleague, could you please provide TGI for the compounds listed below?
1. COc1cccc(C(=O)N[C@@H]2[C@H](O)[C@@H](CO)O[C@H]2n2cnc3c(N)ncnc32)c1
2. COC(=O)C1(C)OC(C)=NC1(C(=O)OC)C(=O)OC (configuration not stated)

Return:
1: > 100 µM; 2: > 100 µM

====

Would you mind telling me the reported TGI of each entry?
Test system: HCT-116 colon
EXPERIMENT_DESCRIPTION: NCI tumour cell line growth inhibition, 48 h

[[record]]
compound = "CNC(=O)c1cncc(/C=C/c2c(Cl)cccc2Cl)c1"
system_tested = "HCT-116 colon"
test_value = "> 25 µM"

[[record]]
compound = "O=C1NN=C(c2ccc([N+](=O)[O-])cc2)C1n1nc(-c2ccccc2)c2ccccc2c1=O (configuration not stated)"
system_tested = "HCT-116 colon"
test_value = "> 100 µM"

[[record]]
compound = "CNc1ncc2cc(Oc3ccc(F)cc3F)c(=O)n(C)c2n1"
system_tested = "HCT-116 colon"
test_value = "> 25 µM"

[[record]]
compound = "Nc1ccccc1C#C/C=C\\C#Cc1ccccc1F"
system_tested = "HCT-116 colon"
test_value = "16.1 µM"

[[record]]
compound = "O=C1NN=CN2C(=O)CCC12 (configuration not stated)"
system_tested = "HCT-116 colon"
test_value = "> 100 µM"

[[record]]
compound = "NC(=O)N/N=C(\\CCC(=O)N(Cc1ccccc1)Cc1ccccc1)CC(=O)c1ccc(F)cc1"
system_tested = "HCT-116 colon"
test_value = "> 100 µM"

[[record]]
compound = "CN(C)Cc1[nH]c2ccccc2c1C(=O)c1ccccc1"
system_tested = "HCT-116 colon"
test_value = "> 100 µM"

[[record]]
compound = "COc1ccc(N2C(=O)C3c4[nH]c5ccc(OCc6ccccc6)cc5c4C4CCC(C(C)C)CC4C3C2=O)cc1 (configuration not stated)"
system_tested = "HCT-116 colon"
test_value = "> 100 µM"


Dear colleague, could you please provide TGI for the compounds listed below?
1. O=c1[nH]cnc2c1ncn2CCCCO
2. CC(Nc1n[nH]c(=O)c2c1nnn2Cc1ccccc1)c1ccccc1 (configuration not stated)
3. CCOC(=O)/C=C1\Oc2ccccc2C1(C)O (configuration not stated)
4. COc1cc(NC(=O)c2cc(O)c(C/C=C(\C)CCC=C(C)C)c(O)c2)cc2c1O[C@]1(C)CC[C@@H](O)C(C)(C)[C@H]1C2
5. Cc1nc(Nc2nc3ccccc3[nH]2)[nH]c(=O)c1CCO
6. N#CC(C(=O)CCC(=O)Nc1ccc(Cl)c(Cl)c1)c1ccc(Cl)cc1 (configuration not stated)

Return:
1. > 100 µM
2. > 100 µM
3. > 100 µM
4. 12.3 µM
5. > 100 µM
6. > 100 µM

Dear colleague, could you please provide TGI for the compounds listed below?
1. CC(=O)O[C@H]1CC[C@@]2(C)C(=C/C(=N\[N+](=O)[O-])[C@H]3C4CCC([C@H](C)CCCC(C)C)[C@@]4(C)CCC32)C1 (some centres not stated)
2. COC(=O)CCC(C)[C@H]1CCC2C3C(C[C@H](OC(C)=O)[C@@]21C)[C@@]1(C)CCC2(C[C@H]1C[C@H]3OC(C)=O)OOC1(CCCCC1)OO2 (some centres not stated)
3. CCCc1cc(-c2ccc(-c3cc(CCC)c(C=O)[nH]3)s2)[nH]c1C=O

Return:
> 100 µM
> 100 µM
> 100 µM

Dear colleague, could you please provide TGI for the compounds listed below?
1. COc1cc2c(Cc3cc(OCc4ccccc4)ccc3N)nccc2c(OC)c1OC
2. O=CN1N=C(c2ccc(Nc3ccnc4cc(Cl)ccc34)cc2)CC1c1ccc(Cl)cc1 (configuration not stated)
3. NCCCCCNOCCCN
4. O=C1NC(c2ccccc2)N=C2Oc3ccccc3C=C12 (configuration not stated)
5. COC(=O)CCC1(O)C=CC(=O)C=C1
6. CC(C)OP(=O)(OC(C)C)C(Nc1cccc(C(F)(F)F)c1)c1ccccc1 (configuration not stated)
7. COc1cccc(C(=O)N[C@@H]2[C@H](O)[C@@H](CO)O[C@H]2n2cnc3c(N)ncnc32)c1

Return:
1. > 10 µM
2. > 100 µM
3. > 100 µM
4. > 100 µM
5. > 100 µM
6. > 100 µM
7. > 100 µM

Dear colleague, could you please provide TGI for the compounds listed below?
1. CC(C)c1cccc(C(C)C)c1NC(=O)C(=O)C1SC(=S)NC1=O (configuration not stated)
2. COc1ccc2c(c1)C=C1CSCC3=Cc4cc(OC)ccc4OC13O2
3. CC(=O)Nc1nnc(S(=O)(=O)NC(=S)Nc2ccc(Cl)cc2)s1

Return:
1. > 100 µM
2. > 100 µM
3. > 100 µM

====

CCRF-CEM leukemia: reported GI50 for various molecules.

[[record]]
smiles_structure = "Cc1c(C(N)=O)sc2c1c(=O)n(Cc1ccccc1)c1nnc(S(=O)(=O)CC(=O)Nc3ccc(Cl)cc3)n21"
test_value = "10.9 µM"

[[record]]
smiles_structure = "CCc1c2c(nc3ccc(OCc4ccc(B5OC(C)(C)C(C)(C)O5)cc4)cc13)-c1cc3c(c(=O)n1C2)COC(=O)[C@]3(O)CC"
test_value = "< 0.01 µM"

[[record]]
smiles_structure = "O=C1C=C(OCCCl)C(=O)c2c(O)ccc(O)c21"
test_value = "1.32 µM"


Could you now consider this next molecule?
Enquiry: Indicate the recorded GI50 value for this molecule: `Cc1cc(Cl)ccc1Nc1nc(C(F)(F)F)ccc1C(=O)Nc1cccc(C(F)(F)F)c1`
Return: 3.41 µM
